- System: Chang Liver (normal liver)
- protocol_summary: Cytotoxicity on normal liver Chang Liver
- Format: cell-based
- experimental_conditions: 48 h

smiles: COC(=O)C1=CO[C@@H]2O[C@H]3/C(=C\c4ccc(O)c(OC)c4)C(=O)O[C@]34C=C[C@H]1[C@H]24
IC50 (µM): 9.34

These measurements were taken from paper PMC4974772.
